- measurement target: T1, full-length beta-Catenin (Uniprot ID P35222) (Homo sapiens (Human), UniProt P35222 2-781)
- T1 construct: The assay text says 'full-length'; also called B-Catenin; bCat
- T1 sequence: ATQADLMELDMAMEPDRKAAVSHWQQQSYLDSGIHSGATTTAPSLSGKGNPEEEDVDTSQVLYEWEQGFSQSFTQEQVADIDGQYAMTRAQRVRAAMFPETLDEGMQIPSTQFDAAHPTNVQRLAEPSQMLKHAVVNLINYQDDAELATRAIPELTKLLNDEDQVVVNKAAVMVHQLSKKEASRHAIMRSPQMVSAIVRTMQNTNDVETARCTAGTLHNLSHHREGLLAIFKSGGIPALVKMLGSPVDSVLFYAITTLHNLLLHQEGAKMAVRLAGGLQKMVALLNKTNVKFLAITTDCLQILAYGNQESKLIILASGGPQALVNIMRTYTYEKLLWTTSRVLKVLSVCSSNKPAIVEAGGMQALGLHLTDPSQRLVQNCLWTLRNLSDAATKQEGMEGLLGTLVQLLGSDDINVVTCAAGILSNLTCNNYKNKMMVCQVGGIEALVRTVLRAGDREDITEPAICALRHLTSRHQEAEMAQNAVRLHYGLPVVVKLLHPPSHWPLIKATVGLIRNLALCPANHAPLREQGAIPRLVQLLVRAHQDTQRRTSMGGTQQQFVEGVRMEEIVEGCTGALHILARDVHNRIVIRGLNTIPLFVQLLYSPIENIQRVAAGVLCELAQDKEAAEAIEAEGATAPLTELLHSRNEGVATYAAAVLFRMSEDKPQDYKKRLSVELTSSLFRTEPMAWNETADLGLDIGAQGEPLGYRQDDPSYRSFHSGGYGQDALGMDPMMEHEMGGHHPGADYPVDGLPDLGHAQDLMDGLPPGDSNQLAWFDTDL
- assay comment: AlphaScreen competition vs biotin-TCF4(10-53) on full-length beta-catenin
Starred links: 1 amine or outer side, 2 acyl side, 3 side chain; linkers in the order of their positions; H or OH if unused. Positions of bridges follow the written chain, without caps; N, C: chain ends. Non-standard residues stand in square brackets, D forms with d. Primed or numbered codes have the meaning given here. Az″ = 1-((allyloxy)carbonyl)-3-aminoazetidine-3-carboxylic acid (staple end via allyl carbamate), C=CCOC(=O)N1CC(N[*:1])(C(=O)[*:2])C1; PyrS″ = (S)-1-((allyloxy)carbonyl)-3-aminopyrrolidine-3-carboxylic acid (stapling residue), C=CCOC(=O)N1CC[C@@](N[*:1])(C(=O)[*:2])C1; PyrS = (S)-1-((allyloxy)carbonyl)-3-aminopyrrolidine-3-carboxylic acid, C=CCOC(=O)N1CC[C@@](N[*:1])(C(=O)[*:2])C1; 3Pal = N[C@@H](Cc1cccnc1)C(=O)O; R8 = C=CCCCCCC[C@@](C)(N)C(=O)O; Cha = N[C@@H](CC1CCCCC1)C(=O)O; S8 = C=CCCCCCC[C@](C)(N)C(=O)O
observable: EC50

Example entries and their recorded answers appear below.
| binder | value |
| --- | --- |
| Ac-FDA[R8]D[Cha]AAFV[PyrS]FWQ-NH2 (staple 4-11; not fully specified; printed as Ac-Phe-Asp-Ala-R8-Asp-Cha-Ala-Ala-Phe-Val-PyrS-Phe-Trp-Gln-NH2, Stapled peptide composition) [I-16] | ≥ 10 µM |
| Ac-FDA[R8]DDAEFV[PyrS]FWQ-NH2 (staple 4-11; also: later-eluting HPLC isomer peak, Stapled peptide composition) [I-22] | ≥ 10 µM |
| Ac-FDA[R8]D[3Pal]AAFV[PyrS″]FWQ-NH2 (staple 4-11, Stapled peptide composition) [I-10] | ≥ 10 µM |

Name the reported EC50 value associated with the binder FDAXDDAAFVXFWQ (not fully specified; Ac-Phe-Asp-Ala-RdN-Asp-Asp-Ala-Ala-Phe-Val-S4-Phe-Trp-Gln-NH2 as printed: N-terminal acetyl, C-terminal amide, RdN at 4 stapled to S4 at 11, Stapled peptide composition) [I-41]
≥ 10 µM

Name the reported EC50 value associated with the binder Ac-FDA[Az″]DDAAFV[S8]FWQ-NH2 (staple 4-11, Stapled peptide composition) [I-35]
9.54 µM
